Measured Efficacy, listed per entry.
Organism: Rattus norvegicus
test: In vitro efficacy to stimulate [3H]NE in rat prefrontal cortex membrane slice
Type: functional

>  <compound>
CN1CCCC1CCSc1ccc(O)cc1 (centres undefined)

>  <Efficacy>
0.6

$$$$
>  <compound>
CN1CCC[C@H]1c1cccnc1

>  <Efficacy>
1

$$$$
>  <compound>
CN1CCC[C@@H]1CCSc1ccc(O)cc1

>  <Efficacy>
0.3

$$$$
>  <compound>
CN1CCC[C@H]1CCSc1ccc(O)cc1

>  <Efficacy>
0.35

$$$$
